Listing: OD450 at 0.001 nM antibody of selected binders
# system-under-test: murine GPC3-his protein (Sino Biological, Cat. No. 50989-M08B) (murine) (UniProt Q8CFZ4)
# Sequence (Q8CFZ4 25-558 limits assumed): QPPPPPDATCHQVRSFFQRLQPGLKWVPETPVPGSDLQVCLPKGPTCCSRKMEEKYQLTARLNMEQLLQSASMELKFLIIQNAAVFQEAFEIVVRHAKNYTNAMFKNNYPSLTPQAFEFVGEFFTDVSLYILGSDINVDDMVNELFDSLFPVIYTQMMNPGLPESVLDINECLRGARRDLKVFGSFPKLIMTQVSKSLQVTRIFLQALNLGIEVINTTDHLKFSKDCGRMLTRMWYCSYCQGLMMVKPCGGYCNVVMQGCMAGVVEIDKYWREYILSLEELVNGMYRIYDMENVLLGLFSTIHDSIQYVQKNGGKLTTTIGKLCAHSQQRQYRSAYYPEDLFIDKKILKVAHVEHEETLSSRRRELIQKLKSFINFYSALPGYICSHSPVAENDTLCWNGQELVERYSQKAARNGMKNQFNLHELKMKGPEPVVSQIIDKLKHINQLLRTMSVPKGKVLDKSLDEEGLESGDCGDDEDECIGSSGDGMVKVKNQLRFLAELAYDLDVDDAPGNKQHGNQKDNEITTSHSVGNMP
# assay-info: ELISA, coated murine GPC3-His
Provide only the numeric value, understood in OD450 nm.

{"binder": "F1.120.16 human-murine chimeric antibody (antibody, human IgG1, kappa, V domains shown) VH: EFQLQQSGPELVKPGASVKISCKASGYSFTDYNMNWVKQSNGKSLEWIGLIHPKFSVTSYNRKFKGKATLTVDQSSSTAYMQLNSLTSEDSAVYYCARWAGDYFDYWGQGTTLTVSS VL: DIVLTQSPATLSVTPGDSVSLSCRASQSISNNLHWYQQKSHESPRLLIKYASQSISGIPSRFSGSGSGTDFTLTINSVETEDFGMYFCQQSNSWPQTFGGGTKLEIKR", "OD450 at 0.001 nM antibody / OD450 nm": 0.07}
{"binder": "F1.115.8 human-murine chimeric antibody (antibody, human IgG1, kappa, V domains shown) VH: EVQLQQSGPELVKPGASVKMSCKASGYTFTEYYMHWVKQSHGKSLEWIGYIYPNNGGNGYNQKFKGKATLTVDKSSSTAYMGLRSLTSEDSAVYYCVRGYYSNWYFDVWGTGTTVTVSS VL: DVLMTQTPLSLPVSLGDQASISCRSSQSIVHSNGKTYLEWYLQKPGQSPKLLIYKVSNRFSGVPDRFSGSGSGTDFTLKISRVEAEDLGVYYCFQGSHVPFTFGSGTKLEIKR", "OD450 at 0.001 nM antibody / OD450 nm": 0.05}

Look up and report measured OD450 at 0.001 nM antibody for this entry: F1.57.21 human-murine chimeric antibody (antibody, human IgG1, kappa, V domains shown) VH: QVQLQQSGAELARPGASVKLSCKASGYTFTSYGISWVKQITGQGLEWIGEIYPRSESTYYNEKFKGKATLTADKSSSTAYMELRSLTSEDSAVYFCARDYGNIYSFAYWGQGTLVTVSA VL: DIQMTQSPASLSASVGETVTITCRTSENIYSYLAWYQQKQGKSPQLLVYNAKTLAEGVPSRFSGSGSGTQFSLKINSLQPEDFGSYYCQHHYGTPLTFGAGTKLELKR
0.06

Give OD450 at 0.001 nM antibody for the following binder: F1.73.9 human-murine chimeric antibody (antibody, human IgG1, kappa, V domains shown) VH: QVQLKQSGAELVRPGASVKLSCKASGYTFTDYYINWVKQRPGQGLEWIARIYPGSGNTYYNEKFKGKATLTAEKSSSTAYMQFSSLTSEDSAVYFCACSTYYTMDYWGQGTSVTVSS VL: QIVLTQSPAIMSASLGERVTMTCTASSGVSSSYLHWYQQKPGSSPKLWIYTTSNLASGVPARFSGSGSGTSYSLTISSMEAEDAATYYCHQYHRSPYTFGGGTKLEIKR
0.06
